Biological target: T1, CD27 expressed on the cell surface (HT1080_CD27 cells) (human, UniProt P26842 20-260)
T1 construct: whole, on cells; also called K562_CD27
T1 sequence (looked up): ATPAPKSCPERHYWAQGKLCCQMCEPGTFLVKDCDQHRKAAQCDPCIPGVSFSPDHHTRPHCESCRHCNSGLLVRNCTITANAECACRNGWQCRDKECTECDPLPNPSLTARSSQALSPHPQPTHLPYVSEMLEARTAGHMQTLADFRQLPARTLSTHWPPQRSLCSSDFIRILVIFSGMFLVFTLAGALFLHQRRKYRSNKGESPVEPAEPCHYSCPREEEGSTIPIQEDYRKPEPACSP
Assay: cellular binding assay, HT1080_CD27 cells; note: test concentration or dose not given here
Could you please report measured Cellular binding assay [RFU] for the items listed next?
Value expressed in RFU; do not type the unit.

## Input Query: Cellular binding assay [RFU]; subject: P018.S.02.A.A01 (antibody, V domains shown, V regions on human Ig constant parts; also called AB27_27) VH: QSVEESGGRLVTPGTPLTLTCTVSGIDLSRYAMGWVRQAPGKGLEYIGIISSSGSTYYASWIKGRFTISKTSTTVDLKITSPTTEDTATYFCARSPYASTSASAFNLWGPGTLVTVSS VL: AFELTQTPSSVEAAVGGTVTIKCQASQSISSWLSWYQQKPGQPPKLLIYEASKLASGVPSRFKGSGSGTQFTLTISDLESADAATYYCQSYSSTTTNTFGGGTEVVVK
## Output 350

## Input Query: Cellular binding assay [RFU]; subject: P018.S.09.A.A05 (antibody, V domains shown, V regions on human Ig constant parts; also called AB27_145) VH: QSVEESGGRLVTPGTPLTLTCTVSGFSLSSYAMSWVRQAPGKGLEWIGYIWSGGTTDYASWAKGRFTISKTSTTVDLKITDPTTEDTATYFCARGLGDRGSSDYYMPLKLWGQGTLVTVSS VL: AAVLTQTPSPVSAAVGGTVTINCQASEDIESYLAWYQQKPGQPPKLLIYSTSNLASGVSSRFRGSGSGTQLTLTISDLESADAATYYCQCTYDGSSAVWGAFGGGTEVVVK
## Output 214

## Input Query: Cellular binding assay [RFU]; subject: P018.S.07.A.H04 (antibody, V domains shown, V regions on human Ig constant parts; also called AB27_132) VH: QSLEESGGRLVTPGTPLTLTCTVSGLSLSSYDMSWVRQAPGKGLEWIGYIWSGGSTDYASWAKGRFTISKTSTTVDLKIISPTTEDTATYFCARGYVEFDLWGPGTLVTVSS VL: DPVLTQTPPSVSAAVGGTVTINCQSSQSLYSNNYLSWYQQKAGQPPKVLIWPASSLASGVPSRFKGSASGTQFTLTISELQSDDAATYYCQGTFYDSGWLSAFGGGTEVVVK
## Output 386
